- SUBJECT_OF_TEST: interaction between GMPPNP-bound recombinant K-Ras4B G12C mutant protein and cRAF RAS-binding domain (cRAF-RBD) (Homo sapiens, UniProt P01116, G12C)
- Construct: His-tag (N)
- Sequence (P01116 with tags, fused parts or gaps isoform P01116-2 G12C): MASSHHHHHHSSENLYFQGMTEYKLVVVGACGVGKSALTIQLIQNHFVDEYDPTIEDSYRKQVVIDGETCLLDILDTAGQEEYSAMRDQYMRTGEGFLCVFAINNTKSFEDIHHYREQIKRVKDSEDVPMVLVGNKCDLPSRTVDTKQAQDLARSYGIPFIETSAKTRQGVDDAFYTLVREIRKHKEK
- ASSAY_OVERVIEW: Inhibitory activity on interaction between KRAS G12C and cRAF (Alpha technology)
- TEST_CONTEXT: GMPPNP-bound KRAS G12C incubated with compound 25° C. 1 hour; Table 2-1; read-out: IC50
- Description: Interaction between recombinant K-Ras4B G12C mutant protein (amino acids 1-169, SEQ ID NO:2) and cRAF RAS-binding domain (cRAF-RBD, amino acids 50-132, Jena Biosciences GmbH) was measured using Alpha technology (PerkinElmer Inc.). Recombinant KRAS G12C protein with an N-terminal His-tag was expressed in E. coli and purified by affinity chromatography. […]
Label Satisfied when IC50 is strictly below 20 nM; at or above that, label Not satisfied.

Here are 2 molecules together with their reported answers.
MOLECULE | CATEGORY_LABEL
COCCn1c(COC)nc2c3c(c(OC)cc21)-c1cccn2c(C(=O)c4cc(F)c(NC(=O)/C=C/CNC5(C)CC5)c(F)c4)cc(c12)CCN3C (single isomer, unassigned) | Satisfied
CC1(NC/C=C/C(=O)Nc2c(F)cc(C(=O)c3cc4c5c(cccn35)-c3c(cc(N5CCNC5=O)cc3C(F)(F)F)OCC4)cc2F)CC1 | Not satisfied

Q: Strictly below 20 nM in IC50? CN1CCc2cc(C(=O)c3cc(F)c(NC(=O)/C=C/CN4CCCC4)c(F)c3)n3cccc(c23)-c2c(C(F)(F)F)cc3c(ncn3C)c21
A: Not satisfied

Q: Would you mind doing Cn1cnc2c3c(c(C(F)(F)F)cc21)-c1cccn2c(C(=O)c4cc(F)c(NC(=O)/C=C/CN5[C@@H]6CC[C@H]5[C@@H](O)C6)c(F)c4)cc(c12)CCO3 (racemic) as well?
A: Satisfied

Q: What do you get for Cn1cnc2c3c(c(C(F)(F)F)cc21)-c1cccn2c(C(=O)c4cc(F)c(NC(=O)/C=C/CN5CC[C@H]6CC[C@H](O)[C@H]65)c(F)c4)cc(c12)CCO3 (racemic) ?
A: Not satisfied

Q: Similarly, COCCNC/C=C/C(=O)Nc1c(F)cc(C(=O)c2cc3c4c(cccn24)-c2c(C(F)(F)F)cc4c(ncn4C)c2N(C)CC3)cc1F ?
A: Satisfied

Q: Again, but for CN1CCc2cc(C(=O)c3cc(F)c(NC(=O)/C=C/CN4CC[C@H]4CO)c(F)c3)n3cccc(c23)-c2c(C(F)(F)F)cc3c(ncn3C)c21 (single isomer, unassigned)
A: Satisfied

Q: Also CN1CCc2cc(C(=O)c3cc(F)c(NC(=O)/C=C/CNC4(C)CC4)c(F)c3)n3cccc(c23)-c2c(C(F)(F)F)cc3c(ncn3C)c21 , if possible.
A: Satisfied

Q: Another molecule to look at: Cc1nc2c3c(c(C(F)(F)F)cc2n1C)-c1cccn2c(C(=O)c4cc(F)c(NC(=O)/C=C/CNC5(C)CCOCC5)c(F)c4)cc(c12)CCN3C (single isomer, unassigned)
A: Satisfied

Q: Cool, now Cn1cnc2c3c(c(C(F)(F)F)cc21)-c1cccn2c(C(=O)c4cc(F)c(NC(=O)/C=C/CN5C6CCCC5CC6)c(F)c4)cc(c12)CCO3
A: Not satisfied

====

- System: MIA PaCa-2 cells
- ASSAY_OVERVIEW: Growth inhibition activity on KRAS-G12C mutant cell line (CellTiter-Glo 3D)
- Assay type: cell-based, human
- TEST_CONTEXT: Homo sapiens, MIA PaCa-2, 72 h, MIA PaCa-2, 3-day culture with compound; Table 3-1
Recorded measurements of IC50, one per entry
Supply the numeric figure in nM, leaving out any unit text.

// solved cases for IC50 follow
COMPOUND | SUBJECT_OF_TEST | IC50 [nM]
CN1CCc2cc(C(=O)c3cc(F)c(NC(=O)/C=C/CNC4(CO)CCCC4)c(F)c3)n3cccc(c23)-c2c(C(F)(F)F)cc3c(ncn3C)c21 | MIA PaCa-2 cells | 19.5
COc1cc2c(nc(C)n2C)c2c1-c1cc(F)cn3c(C(=O)c4cc(F)c(NC(=O)/C=C/CN[C@H]5CCOC5)c(F)c4)cc(c13)CCN2C (single isomer, unassigned) | MIA PaCa-2 cells | 2.77

Q: For CN1CCc2nc(C(=O)c3cc(F)c(NC(=O)/C=C/CNC4(C)CC4)c(F)c3)n3cccc(c23)-c2c(C(F)(F)F)cc3c(ncn3C)c21 (single isomer, unassigned) , what is its reported IC50?
A: 27.8

====

The molecules listed here are annotated with their pIC50.
- Tested on: MIA PaCa-2 cells
- ASSAY_OVERVIEW: Growth inhibition activity on KRAS-G12C mutant cell line (CellTiter-Glo 3D)
- Format: cell-based, human
- TEST_CONTEXT: MIA PaCa-2, 3-day culture with compound; Table 3
pIC50 here is simply -log10 of the concentration when that concentration is written in mol/L.

Below, 2 molecules whose answers are already recorded.
MOLECULE | SUBJECT_OF_TEST | pIC50
CO[C@H]1CC[C@H](NC/C=C/C(=O)Nc2c(F)cc(C(=O)c3cn4c5c(cccc35)-c3c(C(F)(F)F)cc5c(nc(C)n5C)c3OCC4)cc2F)CC1 (single isomer, unassigned) [Example 12-2] | MIA PaCa-2 cells | 5.80
CO[C@H]1CC[C@H](NC/C=C/C(=O)Nc2c(F)cc(C(=O)c3cn4c5c(cccc35)-c3c(cc(N5CCCC5=O)cc3C(F)(F)F)OCC4)cc2F)CC1 (single isomer, unassigned) [Example 5-1] | MIA PaCa-2 cells | 7.85

Field: next molecule
Q: GET /values?readout=pIC50&system=MIA PaCa-2 cells&item= CO[C@H]1CC[C@H](NC/C=C/C(=O)Nc2c(F)cc(C(=O)c3cn4c5c(cccc35)-c3c(C)cc5c(nc(C)n5C)c3OCC3(CC3)C4)cc2F)CC1 (single isomer, unassigned) [Example 21-2]
A: 5.82

====

Overview of recorded pIC50 for various compounds
- SUBJECT_OF_TEST: interaction between GMPPNP-bound recombinant K-Ras4B G12C mutant protein and cRAF RAS-binding domain (cRAF-RBD) (Homo sapiens, UniProt P01116, G12C)
- Construct: His-tag (N)
- ASSAY_OVERVIEW: Inhibitory activity on interaction between KRAS G12C and cRAF (Alpha technology)
- TEST_CONTEXT: GMPPNP-bound KRAS G12C incubated with compound 25° C. 1 hour; Table 2-1; read-out: IC50
Lab note: report pIC50 as minus log10 of the concentration in molar units, number only.

COMPOUND | READING
COCc1nc2c3c(c(OC)cc2n1C)-c1cccn2c(C(=O)c4cc(F)c(NC(=O)/C=C/CN[C@H]5CCOC5)c(F)c4)cc(c12)CCN3C (single isomer, unassigned) [Example 171] | 8.20
COc1cc2c(nc(C)n2C)c2c1-c1cccn3c(C(=O)c4cc(F)c(NC(=O)/C=C/CN[C@@H]5CCCOC5)c(F)c4)cc(c13)CCN2C [Example 133] | 7.94
CN1CCc2cc(C(=O)c3cc(F)c(NC(=O)C=CCNC4COCC4O)c(F)c3)n3cccc(c23)-c2c(C(F)(F)F)cc3c(ncn3C)c21 (centres unmarked) [Example 138] | 7.33
COCc1nc2c3c(c(OC)cc2n1C)-c1cccn2c(C(=O)c4cc(F)c(NC(=O)/C=C/CNC5(C)COC5)c(F)c4)cc(c12)CCN3C (single isomer, unassigned) [Example 170] | 7.85
C[C@H](O)[C@@H]1CCCN1C/C=C/C(=O)Nc1c(F)cc(C(=O)c2cc3c4c(cccn24)-c2c(C(F)(F)F)cc4c(ncn4C)c2N(C)CC3)cc1F [Example 219] | 7.41
CN1CCc2cc(C(=O)c3cc(F)c(NC(=O)/C=C/CNC4(C)COC4)c(F)c3)n3cccc(c23)-c2c(C(F)(F)F)cc3c(ncn3C)c21 (single isomer, unassigned) [Example 83] | 7.47
Cc1nc2c3c(c(C(F)(F)F)cc2n1C)-c1cccn2c(C(=O)c4cc(F)c(NC(=O)/C=C/CN[C@@H]5COC[C@H]5O)c(F)c4)cc(c12)CCN3C [Example 137] | 7.47
COCc1nc2c3c(c(C(F)(F)F)cc2n1C)-c1cccn2c(C(=O)c4cc(F)c(NC(=O)/C=C/CN[C@H]5CCOC5)c(F)c4)cc(c12)COC3 [Example 209] | 7.33
COc1cc2c(nc(C)n2C)c2c1-c1cccn3c(C(=O)c4cc(F)c(NC(=O)/C=C/CNC5(C)CC5)c(F)c4)cc(c13)CCO2 [Example 194] | 7.99
Cn1cnc2c3c(c(C(F)(F)F)cc21)-c1cccn2c(C(=O)c4cc(F)c(NC(=O)/C=C/CN5CC[C@H]5C(C)(C)O)c(F)c4)cc(c12)CCO3 [Example 162] | 7.65

Turning to the following compound.
Q: Look at this compound and give its reported pIC50. COc1cc2c(nc(C)n2C)c2c1-c1cccn3c(C(=O)c4cc(F)c(NC(=O)/C=C/CNC5CCCCC5)c(F)c4)cc(c13)CCN2C [Example 104]
A: 7.38
